Measured koff, listed per entry.
target: T1, human PD-L1 extracellular domain (human, UniProt Q9NZQ7 19-238); experiment: BLI (Octet Red 96), antibody on anti-human Fc biosensor, PD-L1 ECD in solution, 1:1 global fit
T1 construct: also called recombinant PD-L1; recombinant human PD-L1 extracellular domain protein
T1 sequence (Q9NZQ7 19-238 limits assumed): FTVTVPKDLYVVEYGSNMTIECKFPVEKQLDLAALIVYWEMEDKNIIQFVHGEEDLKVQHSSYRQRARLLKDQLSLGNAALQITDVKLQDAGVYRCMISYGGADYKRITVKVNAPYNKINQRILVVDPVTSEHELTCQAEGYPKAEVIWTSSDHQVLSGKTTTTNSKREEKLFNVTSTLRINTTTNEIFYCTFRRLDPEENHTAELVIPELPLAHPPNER
Kindly answer with a numeric value in s⁻¹, unit omitted.

{"binder": "AB3 (rabbit/human chimeric anti-PD-L1 antibody) (antibody, human IgG1, kappa, V domains shown, Rabbit variable domains on human IgG1 / human kappa constant domains; also called AB3 CHIMERIC) VH: QEQLEESGGGLVTPGGTLTLTCTVSGFSLSSYWMSWVRQAPGKGLEWIGVIDTNVYIYYANWAKGRFTISKTSTTVDLKITSPTTEDTATYFCARYVGNNDDYINLWGPGTLVTVSS VL: AVLTQTPSPVSAAVGGTVSISCQSSQSVYNGYWLSWYQQKPGQPPKLLIYGASTLASGVPSRFKGSGSGTQFTLTINDVQCDDAATYYCLGSYTSSTENSFGGGTEVVVKR", "reportedResult": 0.000144}

Incoming: Item AB3HU (humanized form of antibody AB3) (antibody, human IgG1, kappa, V domains shown, Humanized, human gamma-1 / kappa constant domains) VH: EVQLVESGGGLVQPGGSLRLSCAASGFSLSSYWMSWVRQAPGKGLEWIGVIDTNVYIYYANWAKGRFTISRDNSKNTLYLQMNSLRAEDTAVYYCARYVGNNDDYINLWGQGTLVTVSS VL: DIQMTQSPSTLSASVGDRVTITCQSSQSVYNGYWLSWYQQKPGKAPKLLIYGASTLASGVPSRFSGSGSGTEFTLTISSLQPDDFATYYCLGSYTSSTENSFGGGTKVEIKR has what recorded koff?
Outgoing: 0.000337

Incoming: Need koff, item AB1HU (humanized form of antibody AB1) (antibody, human IgG1, kappa, V domains shown, Humanized, human gamma-1 / kappa constant domains) VH: EVQLLESGGGLVQPGGSLRLSCAASGFSFSSGYDMCWVRQAPGKGLEWIACIAAGSAGITYDANWAKGRFTISRDNSKNTLYLQMNSLRAEDTAVYYCARSAFSFDYAMDLWGQGTLVTVSS VL: DIQMTQSPSTLSASVGDRVTITCQASQSISSHLNWYQQKPGKAPKLLIYKASTLASGVPSRFSGSGSGTEFTLTISSLQPDDFATYYCQQGYSWGNVDNVFGGGTKVEIKR
Outgoing: 0.000239

Incoming: Need koff of AB4HU (humanized form of antibody AB4) (antibody, human IgG1, kappa, V domains shown, Humanized, human gamma-1 / kappa constant domains) VH: EVQLVESGGGLVQPGGSLRLSCTVSGIDLSVINMGWVRQAPGKGLEWIGTITYVGNTYYASWAKGRFTISKTSTTVDLKITSPTTEDTAVYYCARESGTIYYSYFNLWGQGTLVTVSS VL: AFELTQSPSSLSASVGDRVTIKCQASESISNYLSWYQQIPGKVPKLLIYYASNLASGVPSRFSGSGSGTDFTLTISSLQPEDVATYYCQSYYGGGSAYTFGGGTKVEIKR , thanks.
Outgoing: 0.000766

Incoming: GET /values?readout=koff&item= AB5HU (humanized form of antibody AB5) (antibody, human IgG1, kappa, V domains shown, Humanized, human gamma-1 / kappa constant domains) VH: QSVEESGGGLVQPGGSLRLSCTASGIDLNTYDMIWVRQAPGKGLEWVGIITYSGSRYYANWAKGRFTISKDNTKNTVYLQMNSLRAEDTAVYYCARDYMSGSHLWGQGTLVTVSS VL: AYDMTQSPSSVSASVGDRVTIKCQASEDIYSFLAWYQQKPGKAPKLLIHSASSLASGVPSRFSGSGSGTDFTLTISSLQPEDFATYYCQQGYGKNNVDNAFGGGTKVEIKR
Outgoing: 0.000234
